Hey, just so you know, these numbers are from PubChem BioAssay.

target: Voltage-gated potassium channel subunit beta-2 (Rattus norvegicus); experiment: KvBeta enzyme negative modulators, primary screen, biochemical, NADPH fluorescence (AID 622); details: recombinant KvBeta, 4-cyanobenzaldehyde reduction, at 10 µM, active compounds read high;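 further: slope of raw intensity against log time taken from 70 to 1610 s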
I'd appreciate it if you could supply fluorescence slope values for the items below.
Answer using only a numeral; do not append any unit.

Need fluorescence slope of CC(C)Nc1nc(NC(C)C)nc(N(C)n2cnnc2)n1 , thanks.
-0.482

Report fluorescence slope for CCOc1cc2nc(-c3ccc(OC)c(OC)c3)nc(N3CCOCC3)c2cc1OC please.
-0.455

Give its fluorescence slope value. Item: COc1ccc(C(=O)Cn2c(Br)nc3c2c(=O)n(C)c(=O)n3C)cc1OC
-0.471

I'd like to know its fluorescence slope. The compound in question is COc1ccc(/C=C/C(=O)Nc2ccccc2C(=O)O)cc1OC
-0.492

What does the record list as fluorescence slope for CCCc1cc(=O)oc2c(CN3CCN(C)CC3)c(O)c(Cl)cc12 ?
-0.229

Endpoint output: fluorescence slope of CCOC(=O)C(CC(=O)O)N1CCCCC1 (stereo unspecified) . Value?
-0.367
